# Test system: Fibroblast
# procedure.summary: Multiplex assay against human fibroblast
# Assay type: toxicity, cell-based
# applied.conditions: 24 h, 10 µM, compound concentration 10 uM, replicate 2
Lab note: anything with Population Mitochondria Different-Phenotype (%) at or over 10% counts as Criterion met; the rest go in Criterion not met.

• CC1(COc2ccc3c(c2)ncn3-c2ccc3cccc(N4CCC(N)CC4)c3n2)COC1 = Criterion not met
• CNC[C@H](O)c1ccc(O)c(O)c1 [EPINEPHRINE] = Criterion not met
• CN(C)c1ccnc2sc3c(=O)n(N4CCCCCC4)cnc3c12 = Criterion met
• Cc1ccc(/C(=C\CN2CCCC2)c2ccccn2)cc1 = Criterion met
• COc1cc(C(=O)N(CCCc2ccccc2)Cc2ccc(CC(=O)O)cc2)cc(OC)c1C = Criterion not met
• CN1CCN2c3ncccc3Cc3ccccc3C2C1 (centres undefined) = Criterion not met
• Cc1ccc(F)cc1C(=O)Nc1ccc(C(=O)N2Cc3cccn3Cc3ccccc32)c(Cl)c1 = Criterion met
• c1cc(OCCCN2CCCCC2)ccc1CN1CCCCC1 = Criterion met
• N[C@@]1(C(=O)O)CO[C@H]2[C@H](C(=O)O)[C@H]21 = Criterion not met
• Cc1ccccc1C(=O)Nc1ccc(C(=O)N2CCCC(N(C)C)c3ccccc32)cc1.Cl (centres undefined) = Criterion met
• COc1ccc2c(c1)C(C(=O)N(Cc1ccc(N(C)C)cc1)c1ccc(C(C)C)cc1)CCC2.Cl (centres undefined) = Criterion met
• Cc1nc2ccc(Oc3ccc(F)cc3)cc2c(=O)n1C[C@H]1CCCN(C(C)C)C1.Cl = Criterion met
• COc1c(C)cc(NC(=O)c2nn(Cc3ccc(F)cc3)c3c2CN(C(=O)c2ccc[nH]2)C[C@]3(C)C(N)=O)cc1C = Criterion met
• O=C(NCC(=O)N1CC[C@H](N[C@H]2CC[C@@](O)(c3ccc(-c4ncccn4)cn3)CC2)C1)c1cccc(C(F)(F)F)c1 = Criterion not met
• CCCN1CCC[C@@H]2Cc3n[nH]cc3C[C@H]21.Cl [QUINPIROLE HYDROCHLORIDE] = Criterion not met
• CC(=O)NCCc1c(Cc2ccccc2)[nH]c2ccccc12 = Criterion not met
• N#Cc1c(N)nc(SCc2csc(-c3ccc(Cl)cc3)n2)c(C#N)c1-c1ccc(OCCO)cc1 = Criterion met
